Taken from ChEMBL document CHEMBL1153845.

Below, each entry is listed alongside its reported pIC50.
System: Entamoeba histolytica
Procedure text: Antiamnesic activity against Entamoeba histolytica HM-1:IMSS after 72 hrs by trypan blue exclusion assay
Assay type: functional, organism-based
pIC50: −log10 of the molar value.

Molecule | Measured target | Relational operator | pIC50
Clc1ccccc1C1=NOC(c2ccccc2Cl)O1 (configuration not stated) | Entamoeba histolytica | = | 6.39
CC1(c2ccc(Cl)cc2)ON=C(c2ccccc2Cl)O1 (configuration not stated) | Entamoeba histolytica | < | 5.74
CCc1ccc(C2ON=C(c3ccccc3Cl)O2)cc1 (configuration not stated) | Entamoeba histolytica | < | 5.74
CCC1(c2cccc(Cl)c2)ON=C(c2cccc(Cl)c2)O1 (configuration not stated) | Entamoeba histolytica | < | 5.74
CC1(c2cccc(Br)c2)ON=C(c2ccccc2Cl)O1 (configuration not stated) | Entamoeba histolytica | < | 5.74
Clc1cccc(C2ON=C(c3ccccc3Cl)O2)c1 (configuration not stated) | Entamoeba histolytica | = | 6.14
CC1(c2ccccn2)ON=C(c2cccc(Cl)c2)O1 (configuration not stated) | Entamoeba histolytica | = | 5.76
Clc1ccc(C2ON=C(c3ccccc3Cl)O2)cc1 (configuration not stated) | Entamoeba histolytica | = | 6.29
CCC1(c2cccc(Cl)c2)ON=C(c2ccc(Cl)cc2)O1 (configuration not stated) | Entamoeba histolytica | < | 5.74
CC1(c2ccccn2)ON=C(c2ccc(Cl)cc2)O1 (configuration not stated) | Entamoeba histolytica | = | 5.80
CCC1(c2cccc(Br)c2)ON=C(c2cccc(Cl)c2)O1 (configuration not stated) | Entamoeba histolytica | < | 5.74
CC1(c2ccccn2)ON=C(c2ccccc2Cl)O1 (configuration not stated) | Entamoeba histolytica | = | 5.79
